- system-tested: PD-1/PD-L1 interaction (PD-1-Ig / PD-L1-His) (Homo sapiens)
- Construct: hPDL1(18-239)-TVMV-His; TVMV protease site linker (C); made in house; host or cells: HEK293T
- Sequence (Q9NZQ7 with tags, fused parts or gaps): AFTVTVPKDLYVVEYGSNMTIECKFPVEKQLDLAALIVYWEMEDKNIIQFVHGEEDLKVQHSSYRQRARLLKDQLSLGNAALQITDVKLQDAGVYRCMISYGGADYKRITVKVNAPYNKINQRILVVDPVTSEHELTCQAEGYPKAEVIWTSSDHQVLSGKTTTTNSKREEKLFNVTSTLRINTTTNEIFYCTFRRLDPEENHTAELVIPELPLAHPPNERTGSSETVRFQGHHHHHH
- protocol-summary: PD-1/PD-L1 Homogenous Time-Resolved Fluorescence (HTRF) binding assay
- experimental-parameters: numeric IC50; PD-L1-His 10 nM, PD-1-Ig 20 nM; read-out: Range or IC50
# pIC50 values compiled below
Entry type: numeric. Quantity: pIC50, the -log10 of concentration in molar units.

Solved entries (count: 2):
# molecule, pIC50
rows = [
    ("Cc1c(COc2cc(OCc3cncc(C#N)c3)c(CNC/C=C\\C(=O)O)cc2Cl)cccc1-c1cccc(COc2cc(OCc3cncc(C#N)c3)c(CNC/C=C\\C(=O)O)cc2Cl)c1C", 7.66),
    ("Cc1c(OCCCN2CC[C@@H](O)C2)cccc1-c1cccc(S(=O)(=O)NCCCN(C)C)c1C", 5.00),
]

Switching to the query record.
Query: # get_value(readout='pIC50', item= CCC[C@@H](C(=O)O)N(C)Cc1cc(Cl)c(OCc2cccc(-c3cccc(COc4cc(OCc5cc(F)cc(F)c5)c(CN(C)[C@@H](CCC)C(=O)O)cc4Cl)c3C)c2C)cc1OCc1cc(F)cc(F)c1 )
Reply: 7.51

Data origin: patent US10144706B2
